- Tested on: Clostridium sporogenes DSM 1664
- ASSAY OVERVIEW: fold change of Tryptamine concentration vs plate DMSO controls (fold change (ratio)); higher = more amine produced, active = hit call of the paper (significant change in both replicates, either direction)
- CONDITION DESCRIPTION: incubation time: 27 h, anaerobic, 37 °C

COMPOUND: CC1CCc2c(N3CCC(O)CC3)c(F)cc3c(=O)c(C(=O)O)cn1c23 (stereo not drawn) [Nadifloxacin] (20 µM)
fold change of Tryptamine concentration: 0.0474
//
COMPOUND: OC[C@H](O)C(O)[C@@H](O)CO [L-Arabinitol] (50 µM)
fold change of Tryptamine concentration: 0.956
//
COMPOUND: c1cnc(N2CCN(Cc3ccc4c(c3)OCO4)CC2)nc1 [Piribedil] (20 µM)
fold change of Tryptamine concentration: 1.18

###

- Test system: Clostridium sporogenes DSM 1664
- ASSAY OVERVIEW: fold change of Tryptamine concentration vs plate DMSO controls (fold change (ratio)); higher = more amine produced, active = hit call of the paper (significant change in both replicates, either direction)
- CONDITION DESCRIPTION: incubation time: 27 h, anaerobic, 37 °C
Where a name gives a salt, the structure may show the parent alone.
Classify by fold change of Tryptamine concentration. Ranges: group 1: < 0.9; group 2: ≥ 0.9 and < 1; group 3: ≥ 1

MOLECULE: CCC[C@@H]1C[C@@H](C(=O)N[C@@H]([C@H]2O[C@H](SC)[C@H](O)[C@@H](O)[C@H]2O)[C@H](C)Cl)N(C)C1 [Clindamycin hydrochloride] (20 µM)
GROUP LABEL: group 1
//
MOLECULE: O=C(c1ccc(F)cc1)C1CCN(CCn2c(=O)[nH]c3ccccc3c2=O)CC1 [Ketanserin tartrate hydrate] (20 µM)
GROUP LABEL: group 3
//
MOLECULE: CCOC(=O)[C@H](CCc1ccccc1)N[C@@H](C)C(=O)N(CC(=O)O)C1Cc2ccccc2C1 [Delapril Hydrochloride] (20 µM)
GROUP LABEL: group 2
//
MOLECULE: CNCCC(Oc1ccc(C(F)(F)F)cc1)c1ccccc1 (centres undefined) [Fluoxetine hydrochloride] (20 µM)
GROUP LABEL: group 2
//
MOLECULE: Cc1c(O)cccc1C(=O)N[C@@H](CSc1ccccc1)[C@H](O)CN1C[C@H]2CCCC[C@H]2C[C@H]1C(=O)NC(C)(C)C [Nelfinavir mesylate] (20 µM)
GROUP LABEL: group 2
//
MOLECULE: CCCc1nn(C)c2c(=O)[nH]c(-c3cc(S(=O)(=O)N4CCN(C)CC4)ccc3OCC)nc12 [Sildenafil] (20 µM)
GROUP LABEL: group 3
//
MOLECULE: CO[C@@]12[C@H](COC(N)=O)C3=C(C(=O)C(C)=C(N)C3=O)N1C[C@@H]1N[C@@H]12 [Mitomycin C] (20 µM)
GROUP LABEL: group 1
//
MOLECULE: CNS(=O)(=O)Cc1ccc2[nH]cc(CCN(C)C)c2c1 [Sumatriptan succinate] (20 µM)
GROUP LABEL: group 3
//
MOLECULE: CC(NN)c1ccccc1 (centres undefined) [Mebanazine] (20 µM)
GROUP LABEL: group 3
//
MOLECULE: COc1ccc2[nH]cc(CCNC(C)=O)c2c1 [Melatonin] (20 µM)
GROUP LABEL: group 3
//
MOLECULE: CN1CCN2c3ccccc3Cc3ccccc3C2C1 (centres undefined) [Mianserine hydrochloride] (20 µM)
GROUP LABEL: group 2
//
MOLECULE: O=C1c2c(O)cccc2Cc2cccc(O)c21 [Anthralin] (20 µM)
GROUP LABEL: group 3
//
MOLECULE: CCCN[C@H]1CCc2nc(N)sc2C1 [Pramipexole dihydrochloride] (20 µM)
GROUP LABEL: group 2
//
MOLECULE: CC1(C)S[C@@H]2[C@H](NC(=O)[C@H](N)c3ccccc3)C(=O)N2[C@H]1C(=O)O [Ampicillin trihydrate] (20 µM)
GROUP LABEL: group 1
//
MOLECULE: COc1ccc(C(=O)NCc2cccnc2)cc1C(=O)NCc1cccnc1 [Picotamide monohydrate] (20 µM)
GROUP LABEL: group 3
//
MOLECULE: N[C@@H]1CCCCN(c2c(F)cc3c(=O)c(C(=O)O)cn(C4CC4)c3c2Cl)C1 [Besifloxacin hydrochloride] (20 µM)
GROUP LABEL: group 1

###

- Tested on: Klebsiella aerogenes DSM 30053
- ASSAY OVERVIEW: fold change of Cadaverine concentration vs plate DMSO controls (fold change (ratio)); higher = more amine produced, active = hit call of the paper (significant change in both replicates, either direction)
- CONDITION DESCRIPTION: incubation time: 27 h, anaerobic, 37 °C
Where a name gives a salt, the structure may show the parent alone.

COMPOUND: CCc1oc2ccccc2c1C(=O)c1cc(I)c(O)c(I)c1 [Benziodarone] (20 µM)
ASSAY SYSTEM: Klebsiella aerogenes DSM 30053
fold change of Cadaverine concentration: 1.01

COMPOUND: CCOC(=O)[C@H](CCc1ccccc1)N[C@H]1CCc2ccccc2N(CC(=O)O)C1=O [Benazepril hydrochloride] (20 µM)
ASSAY SYSTEM: Klebsiella aerogenes DSM 30053
fold change of Cadaverine concentration: 1.02

COMPOUND: COCCc1ccc(OCC(O)CNC(C)C)cc1 (stereo not drawn) [Metoprolol-(+)-tartrate salt] (20 µM)
ASSAY SYSTEM: Klebsiella aerogenes DSM 30053
fold change of Cadaverine concentration: 1

COMPOUND: Cc1cccc(Nc2ccncc2S(=O)(=O)NC(=O)NC(C)C)c1 [Torsemide] (20 µM)
ASSAY SYSTEM: Klebsiella aerogenes DSM 30053
fold change of Cadaverine concentration: 0.986

COMPOUND: Cn1c(=O)c2c(ncn2CCO)n(C)c1=O [Etofylline] (20 µM)
ASSAY SYSTEM: Klebsiella aerogenes DSM 30053
fold change of Cadaverine concentration: 1

COMPOUND: CCN(CC)CCOC(=O)C(c1ccccc1)C1CCCCC1 (configuration not stated) [Drofenine hydrochloride] (20 µM)
ASSAY SYSTEM: Klebsiella aerogenes DSM 30053
fold change of Cadaverine concentration: 0.992

COMPOUND: COc1cc(/C=C/C(=O)N2CCN(CC(=O)N3CCCC3)CC2)cc(OC)c1OC [Cinepazide maleate] (20 µM)
ASSAY SYSTEM: Klebsiella aerogenes DSM 30053
fold change of Cadaverine concentration: 1.06

COMPOUND: CN(C)CCOC1=Cc2ccccc2Sc2ccc(Cl)cc21 [Zotepine] (20 µM)
ASSAY SYSTEM: Klebsiella aerogenes DSM 30053
fold change of Cadaverine concentration: 0.993

COMPOUND: CC[C@@H](CO)NCCN[C@@H](CC)CO [Ethambutol dihydrochloride] (20 µM)
ASSAY SYSTEM: Klebsiella aerogenes DSM 30053
fold change of Cadaverine concentration: 1.01

COMPOUND: CCCSc1nc(N[C@@H]2C[C@H]2c2ccc(F)c(F)c2)c2nnn([C@@H]3C[C@H](OCCO)[C@@H](O)[C@H]3O)c2n1 [Ticagrelor] (20 µM)
ASSAY SYSTEM: Klebsiella aerogenes DSM 30053
fold change of Cadaverine concentration: 1.01

COMPOUND: CCOC(=O)C1=C(C)NC(C)=C(C(=O)OC)C1c1cccc([N+](=O)[O-])c1 (configuration not stated) [Nitrendipine] (20 µM)
ASSAY SYSTEM: Klebsiella aerogenes DSM 30053
fold change of Cadaverine concentration: 1.01

COMPOUND: CCCCCCCC/C=C\CCCCCCCC(N)=O [Oleamide] (20 µM)
ASSAY SYSTEM: Klebsiella aerogenes DSM 30053
fold change of Cadaverine concentration: 1

COMPOUND: CC1(C)O[C@@H]2[C@@H](CO[C@@]3(COS(N)(=O)=O)OC(C)(C)O[C@@H]23)O1 [Topiramate] (20 µM)
ASSAY SYSTEM: Klebsiella aerogenes DSM 30053
fold change of Cadaverine concentration: 0.989

COMPOUND: Cc1ccc(NC(=O)c2ccc(CN3CCN(C)CC3)cc2)cc1Nc1nccc(-c2cccnc2)n1 [Imatinib] (20 µM)
ASSAY SYSTEM: Klebsiella aerogenes DSM 30053
fold change of Cadaverine concentration: 1.04

COMPOUND: CC(=O)CC(c1ccccc1)c1c(O)c2ccccc2oc1=O (configuration not stated) [Warfarin] (20 µM)
ASSAY SYSTEM: Klebsiella aerogenes DSM 30053
fold change of Cadaverine concentration: 0.984

COMPOUND: C[C@H](O)[C@H](O)[C@H]1CNc2[nH]c(N)nc(=O)c2N1 [Sapropterin dihydrochloride] (20 µM)
ASSAY SYSTEM: Klebsiella aerogenes DSM 30053
fold change of Cadaverine concentration: 1.01

COMPOUND: CC(=O)Oc1cccc2c1C(=O)c1c(OC(C)=O)cc(C(=O)O)cc1C2=O [Diacerein] (20 µM)
ASSAY SYSTEM: Klebsiella aerogenes DSM 30053
fold change of Cadaverine concentration: 1
